system: LOX IMVI; assay: NCI tumour cell line growth inhibition, 48 h
Calls of active or inactive are those of the source. No stated cut-off is given here; in the data, active = GI50 up to about 1.1 µM and inactive = higher.
Labels: active, inactive

MOLECULE	LABEL
O=C1/C(=C\c2cccc(Oc3ccccc3)c2)S(=O)(=O)C(c2ccccc2)N1c1ccccc1Cl (stereo unspecified)	inactive
NS(=O)(=O)c1ccc(N2C(=O)C(=O)N(c3ccccc3)C2=S)cc1	inactive
C=C1CC23CCC4C(C)(C(=O)O)CCCC4(C)C2CCC1C3 (stereo unspecified)	inactive
O=C(CCn1[nH]c(=O)c(Cl)c(Cl)c1=O)NOCCCc1ccccc1	inactive
Cc1ccc2c(c1C)-c1c(ccc(C)c1C)C(=O)C2=O	active
CC1C(=O)C(C)C(c2ccco2)N(N=O)C1c1ccco1 (stereo unspecified)	inactive
